Entries annotated with measured Population Normal (%)
# Tested on: U2OS
# assay.name: Multiplex assay against U2OS
# Assay type: toxicity, cell-based
# experimental.context: human, 24 h, 1 µM, compound concentration 1 uM, replicate 1
// units = %; emit number, no label

CNC[C@H](O)c1ccc(O)c(O)c1 [EPINEPHRINE]; 97
O=S(=O)(c1ccccc1)c1cnc2c(N3CCNCC3)cccc2c1 [INTEPIRDINE]; 97
C[C@H](NC(=O)c1c(C(F)F)nn(C)c1Oc1cccc(C(F)(F)F)c1)c1ccc(C(=O)O)cc1; 97

Note: attention shifts to another entry.
Field Population Normal (%) (entry CC(=O)NCCc1c(Cc2ccccc2)[nH]c2ccccc12 ) reads 95

* * *

# Test system: U2OS
# assay.name: Multiplex assay against U2OS
# Type: toxicity, cell-based
# experimental.context: human, 48 h, 1 µM, compound concentration 1 uM, replicate 2
assay.metric: Population Hoechst High Intensity Objects (%)
Kindly answer with a numeric value in %, unit omitted.

Oc1c(CN2CCN(c3ccccn3)CC2)cc(Cl)c2cccnc12; 1
C[C@H](NC(=O)c1c(C(F)F)nn(C)c1Oc1cccc(C(F)(F)F)c1)c1ccc(C(=O)O)cc1 [PALUPIPRANT]; 0
CSc1ccccc1N1CCN(CCCCCC(=O)NC2CCCc3ccccc32)CC1.Cl (configuration not stated); 5
CC[C@H]1OC(=O)[C@H](C)[C@@H](O[C@H]2C[C@@](C)(OC)[C@@H](O)[C@H](C)O2)[C@H](C)[C@@H](O[C@@H]2O[C@H](C)C[C@H](N(C)C)[C@H]2O)[C@@]2(C)CC(C)=C(O2)[C@H](C)[C@@H](O)[C@]1(C)O; 2

Quick note, Population Hoechst High Intensity Objects (%) for N[C@@]1(C(=O)O)CO[C@H]2[C@H](C(=O)O)[C@H]21 [LY-379268] landed at 2

Documented Population Hoechst High Intensity Objects (%) of CCOc1c2c(c(OCC)c3ncccc13)CN(c1ccc(CS(=O)(=O)NC(=O)Cc3ccccc3OC)cc1C)C2=O : 4

The reported value for Cc1ccc(F)cc1C(=O)Nc1ccc(C(=O)N2Cc3cccn3Cc3ccccc32)c(Cl)c1 [LIXIVAPTAN] in terms of Population Hoechst High Intensity Objects (%) is 3

* * *

# System: HEK-293T
# assay.name: Multiplex assay against HEK293T
# Type: toxicity, cell-based
# experimental.context: human, 24 h, 1 µM, compound concentration 1 uM, replicate 1
Strictly below 80% in Population Healthy Nuclei (%): TRUE. Otherwise: FALSE.

The following compounds have reported results that may help.
CN(C)c1ccnc2sc3c(=O)n(N4CCCCCC4)cnc3c12; TRUE
N#Cc1c(N)nc(SCc2csc(-c3ccc(Cl)cc3)n2)c(C#N)c1-c1ccc(OCCO)cc1 [CAPADENOSON]; TRUE

Here's the next entry for you.
Please determine if O=C1COc2nccc(-c3ccccc3F)c2CN1Cc1cc(C(F)(F)F)cc(C(F)(F)F)c1 is below 80% in terms of Population Healthy Nuclei (%). FALSE

* * *

# System: U2OS
# assay.name: Multiplex assay against U2OS
# Assay type: toxicity, cell-based
# experimental.context: human, 48 h, 1 µM, compound concentration 1 uM, replicate 1
Decision: Population Mitochondria Different-Phenotype (%) beneath 2% gives 1; Population Mitochondria Different-Phenotype (%) meeting or exceeding 2% gives -1.

CN(C)c1ccnc2sc3c(=O)n(N4CCCCCC4)cnc3c12; 1
CCNC1(C(N)=O)CCN(c2ncnc3c2nc(-c2ccccc2Cl)n3-c2ccc(Cl)cc2)CC1; -1
CC(C)(C)c1ccc(S(=O)(=O)Nc2ccc(Cl)cc2C(=O)c2cc[n+]([O-])cc2)cc1; -1
Cc1ccc(F)cc1C(=O)Nc1ccc(C(=O)N2Cc3cccn3Cc3ccccc32)c(Cl)c1; -1
O=S(=O)(c1ccccc1)c1cnc2c(N3CCNCC3)cccc2c1 [INTEPIRDINE]; -1

I'd appreciate it if you could check whether O=C(NCC(=O)N1CC[C@H](N[C@H]2CC[C@@](O)(c3ccc(-c4ncccn4)cn3)CC2)C1)c1cccc(C(F)(F)F)c1 has Population Mitochondria Different-Phenotype (%) smaller than 2%. -1

In the record for O=C1COc2nccc(-c3ccccc3F)c2CN1Cc1cc(C(F)(F)F)cc(C(F)(F)F)c1 , is Population Mitochondria Different-Phenotype (%) less than 2%? -1

* * *

# System: HEK-293T
# assay.name: Multiplex assay against HEK293T
# Assay type: toxicity, cell-based
# experimental.context: human, 12 h, 10 µM, compound concentration 10 uM, replicate 2
Reported Population Mitochondria Different-Phenotype (%) maps to class as: low bin = under 70%, mid bin = from 70% up to 80%, high bin = 80% and over

Solved cases below.
CN(C)CCCc1cc(C(=O)Nc2ccc(-c3ccncc3)cc2)ccc1O.Cl.Cl; low bin
O=C(NCC(=O)N1CC[C@H](N[C@H]2CC[C@@](O)(c3ccc(-c4ncccn4)cn3)CC2)C1)c1cccc(C(F)(F)F)c1; mid bin
O=C(NCCO)c1cccc(-c2cc(Nc3ccc(OC(F)(F)F)cc3)ncn2)c1; mid bin
COc1ccc2c(c1)C(C(=O)N(Cc1ccc(N(C)C)cc1)c1ccc(C(C)C)cc1)CCC2.Cl (stereo not drawn); mid bin

Categorize the following entry: CN1CCN2c3ncccc3Cc3ccccc3C2C1 (stereo not drawn) low bin

Any idea which band COc1c(C)cc(NC(=O)c2nn(Cc3ccc(F)cc3)c3c2CN(C(=O)c2ccc[nH]2)C[C@]3(C)C(N)=O)cc1C is in? high bin

Which band does N[C@@]1(C(=O)O)CO[C@H]2[C@H](C(=O)O)[C@H]21 fall in? low bin

Which class does C[C@H]1[C@H]2CC[C@H]3[C@@H]4CC=C5C[C@@H](N(C)C)CC[C@]5(C)[C@H]4CC[C@]23CN1C fall in? low bin

Kindly state the category for this compound: CCNC1(C(N)=O)CCN(c2ncnc3c2nc(-c2ccccc2Cl)n3-c2ccc(Cl)cc2)CC1 high bin

Which bin, given its Population Mitochondria Different-Phenotype (%), does CN1CCN(c2nc3cc(C(F)(F)F)ccc3n3cccc23)CC1.O=C(O)/C=C\C(=O)O.O=C(O)/C=C\C(=O)O occupy? high bin

* * *

# Test system: U2OS
# assay.name: Multiplex assay against U2OS
# Format: toxicity, cell-based
# experimental.context: human, 24 h, 10 µM, compound concentration 10 uM, replicate 2
assay.metric: Population Membrane Permeable-Phenotype (%)
# number only, unit % dropped from output

Take a look at these entries with their results.
O=C(O)Cc1ccccc1Nc1c(Cl)cccc1Cl; 5
N#Cc1c(N)nc(SCc2csc(-c3ccc(Cl)cc3)n2)c(C#N)c1-c1ccc(OCCO)cc1; 34
Cc1ccc(F)cc1C(=O)Nc1ccc(C(=O)N2Cc3cccn3Cc3ccccc32)c(Cl)c1; 54

Sample COc1cc(NC(=O)CCN2CCC(OC(=O)Nc3ccccc3-c3ccccc3)CC2)c(Cl)cc1CNC[C@H](O)c1ccc(O)c2[nH]c(=O)ccc12 ; Population Membrane Permeable-Phenotype (%) observed: 52

* * *

# Test system: HEK-293T
# assay.name: Multiplex assay against HEK293T
# Type: toxicity, cell-based
# experimental.context: human, 12 h, 1 µM, compound concentration 1 uM, replicate 1
Quick reference for Population Mitochondria Different-Phenotype (%) among some compounds
Report as a plain number; the unit % is understood.

Past entries and their recorded results:
N#Cc1c(N)nc(SCc2csc(-c3ccc(Cl)cc3)n2)c(C#N)c1-c1ccc(OCCO)cc1; 59
CCNC1(C(N)=O)CCN(c2ncnc3c2nc(-c2ccccc2Cl)n3-c2ccc(Cl)cc2)CC1; 48
c1cc(OCCCN2CCCCC2)ccc1CN1CCCCC1; 36

Switching to the query record.
For record C[C@H]1[C@H]2CC[C@H]3[C@@H]4CC=C5C[C@@H](N(C)C)CC[C@]5(C)[C@H]4CC[C@]23CN1C the listed Population Mitochondria Different-Phenotype (%) is 39

* * *

Parameter Population Healthy Nuclei (%): see the listing below.
# System: U2OS
# assay.name: Multiplex assay against U2OS
# Type: toxicity, cell-based
# experimental.context: human, 24 h, 10 µM, compound concentration 10 uM, replicate 2
Provide the reading as a plain figure in %.

These solved cases illustrate the format of a correct answer.
COc1ccc2c(c1)C(C(=O)N(Cc1ccc(N(C)C)cc1)c1ccc(C(C)C)cc1)CCC2.Cl (centres undefined); 57
Oc1c(CN2CCN(c3ccccn3)CC2)cc(Cl)c2cccnc12; 58
CCCN1CCC[C@@H]2Cc3n[nH]cc3C[C@H]21.Cl [QUINPIROLE HYDROCHLORIDE]; 82

Kindly consider the entry below.
Entry C[C@@H]1C[C@H]2[C@@H]3CCC4=CC(=O)C=C[C@]4(C)[C@@]3(F)[C@@H](O)C[C@]2(C)[C@@]1(O)C(=O)CO ; Population Healthy Nuclei (%) = 79

* * *

A collection of compounds and their measured Population Pyknosed Nuclei (%)
# Test system: HEK-293T
# assay.name: Multiplex assay against HEK293T
# Assay type: toxicity, cell-based
# experimental.context: human, 24 h, 1 µM, compound concentration 1 uM, replicate 2
Quick reminder: number only, in %, skip the unit.

c1cc(OCCCN2CCCCC2)ccc1CN1CCCCC1; 9
O=S(=O)(c1ccccc1)c1cnc2c(N3CCNCC3)cccc2c1 [INTEPIRDINE]; 7
CCCC(CCC)C(=O)O; 9

Recorded result, CCOc1c2c(c(OCC)c3ncccc13)CN(c1ccc(CS(=O)(=O)NC(=O)Cc3ccccc3OC)cc1C)C2=O , Population Pyknosed Nuclei (%): 8

Sure, the documented Population Pyknosed Nuclei (%) for COc1ccc2c(c1)C(C(=O)N(Cc1ccc(N(C)C)cc1)c1ccc(C(C)C)cc1)CCC2.Cl (stereo unspecified) is 13

Briefly, Population Pyknosed Nuclei (%) measured for CC1(COc2ccc3c(c2)ncn3-c2ccc3cccc(N4CCC(N)CC4)c3n2)COC1 : 11

get_value(item= CN1CCN2c3ncccc3Cc3ccccc3C2C1 (stereo unspecified) , readout=Population Pyknosed Nuclei (%)) returns 14

Per the record, CSc1ccccc1N1CCN(CCCCCC(=O)NC2CCCc3ccccc32)CC1.Cl (stereo unspecified) has Population Pyknosed Nuclei (%) of 16

Lab note: N[C@@]1(C(=O)O)CO[C@H]2[C@H](C(=O)O)[C@H]21 gave Population Pyknosed Nuclei (%) of 9

Notebook: CN1CCN(c2nc3cc(C(F)(F)F)ccc3n3cccc23)CC1.O=C(O)/C=C\C(=O)O.O=C(O)/C=C\C(=O)O , Population Pyknosed Nuclei (%) read as 10

compound Cc1ccc(/C(=C\CN2CCCC2)c2ccccn2)cc1 , Population Pyknosed Nuclei (%) observed: 7

Given item CN(C)CCCc1cc(C(=O)Nc2ccc(-c3ccncc3)cc2)ccc1O.Cl.Cl , the value recorded as its Population Pyknosed Nuclei (%) is 6

Please fill in: Population Pyknosed Nuclei (%) reported for CC[C@H]1OC(=O)[C@H](C)[C@@H](O[C@H]2C[C@@](C)(OC)[C@@H](O)[C@H](C)O2)[C@H](C)[C@@H](O[C@@H]2O[C@H](C)C[C@H](N(C)C)[C@H]2O)[C@@]2(C)CC(C)=C(O2)[C@H](C)[C@@H](O)[C@]1(C)O = 12

Reported Population Pyknosed Nuclei (%) for O=C(O)Cc1ccccc1Nc1c(Cl)cccc1Cl was 14

Reported Population Pyknosed Nuclei (%) of O=C1COc2nccc(-c3ccccc3F)c2CN1Cc1cc(C(F)(F)F)cc(C(F)(F)F)c1 : 6

Summary for this compound, Cc1ccccc1C(=O)Nc1ccc(C(=O)N2CCCC(N(C)C)c3ccccc32)cc1.Cl (stereo unspecified) : Population Pyknosed Nuclei (%) is 11

Reported Population Pyknosed Nuclei (%) of CN(C)c1ccnc2sc3c(=O)n(N4CCCCCC4)cnc3c12 : 7

Please fill in: Population Pyknosed Nuclei (%) reported for C[C@H](NC(=O)c1c(C(F)F)nn(C)c1Oc1cccc(C(F)(F)F)c1)c1ccc(C(=O)O)cc1 = 9
